Biological target: CYP3A4 (Homo sapiens (Human), UniProt P08684)
Sequence (P08684 whole entry): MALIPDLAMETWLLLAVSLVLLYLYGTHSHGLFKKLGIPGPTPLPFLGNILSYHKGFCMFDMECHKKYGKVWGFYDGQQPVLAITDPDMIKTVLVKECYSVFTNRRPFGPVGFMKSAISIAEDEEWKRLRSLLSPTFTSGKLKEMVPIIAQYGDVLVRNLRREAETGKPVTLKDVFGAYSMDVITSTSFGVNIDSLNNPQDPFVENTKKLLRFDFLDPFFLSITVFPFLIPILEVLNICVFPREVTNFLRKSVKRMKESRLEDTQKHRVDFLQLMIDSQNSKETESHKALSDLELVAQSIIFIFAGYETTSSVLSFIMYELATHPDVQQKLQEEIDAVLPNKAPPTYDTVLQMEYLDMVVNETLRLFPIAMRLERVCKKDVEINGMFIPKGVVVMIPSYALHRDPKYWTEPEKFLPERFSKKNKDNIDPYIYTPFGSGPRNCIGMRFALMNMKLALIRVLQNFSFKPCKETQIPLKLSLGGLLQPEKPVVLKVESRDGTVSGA
Test: Cytochrome P450 inhibition assay, recombinant CYP3A4 (BFC substrate)
Format: in vitro ADME
Conditions: recombinant enzyme
pIC50: −log10 of the molar value.
We begin with a simple list: items and their reported pIC50.

cpd_smiles	pIC50
CNC[C@@H](Cc1ccccc1)c1ccc2ccccc2c1	4.74
CNC[C@@H](c1ccc(Cl)c(Cl)c1)[C@H](O)c1cccc(NC(C)=O)c1	4.70
CNC[C@H](c1ccc(Cl)c(Cl)c1)[C@@H](O)c1ccccc1S(C)(=O)=O	5.32
CNC[C@H](c1ccc2ccccc2c1)[C@H](OCC(=O)NC1CC1)c1ccccc1	4.77
CNC[C@H](c1ccc2ccccc2c1)[C@@H](O)c1cc(F)cc(F)c1	4.70

====

Test: pKa of basic centres (Table 1)
Format: physicochemical
Conditions: first base, e.g., an aliphatic primary, secondary, or tertiary amine; read-out: pKa (Base 1)
We begin with a simple list: items and their reported pKa.

compound	pKa
CNC[C@H](c1ccc(Cl)c(Cl)c1)[C@H](O)c1cccc(I)c1 (single isomer, unassigned) [Compound 151]	9.4
CNC[C@H](c1ccc2ccccc2c1)[C@H](OCC(=O)NCCOC)c1ccccc1 [Compound 51]	9.6
CN(C)C[C@H](c1ccc(Cl)c(Cl)c1)[C@H](O)c1ccccc1 (racemic) [Compound 105]	8.8
CNC[C@@H](c1ccc(Cl)c(Cl)c1)[C@@H](O)c1cccc(N(C)C)c1 (single isomer, unassigned) [Compound 108]	9.5
CNC[C@@H](c1ccc2ccccc2c1)[C@@H](O)c1ccc2c(c1)OCCO2 (racemic) [Compound 145]	9.7
CNC[C@H](c1ccc(Cl)c(Cl)c1)[C@@H](O)c1cccc(NC(C)=O)c1 [Compound 94]	9.4
CNC[C@@H](c1ccc(Cl)c(Cl)c1)[C@@H](O)c1ccccc1[S+](C)[O-] (stereo partly drawn) [Compound 128]	9.4
CNC[C@@H](c1ccc(Cl)c(Cl)c1)[C@@H](O)c1cccnc1OC [Compound 171]	9.2
CNC[C@H](c1ccc2ccccc2c1)[C@H](OCc1cc(C)no1)c1ccccc1 [Compound 20]	9.6
NCC(c1ccc2ccccc2c1)C(O)c1ccc(F)cc1F (stereo not drawn) [Compound 107]	8.5
CNC[C@@H](Cc1ccccc1)c1ccc2ccccc2c1 [Compound 5]	10.1
NCC(Cc1ccccc1F)c1ccc2ccccc2c1 (stereo not drawn) [Compound 137]	9.3
CN1CO[C@H](c2ccccc2)[C@@H](c2ccc3ccccc3c2)C1 [Compound 4]	6.6
CNCC(C[C@H](O)c1ccccc1)c1ccc2ccccc2c1 (stereo partly drawn) [Compound 85]	10.1
C[C@](CN)(Cc1cccnc1)c1ccc2ccccc2c1 [Compound 42]	9.2
CN(C)C[C@H](c1ccc2ccccc2c1)[C@H](O)c1cccs1 (racemic) [Compound 135]	8.9
CNCC(Cc1cccs1)c1ccc2ccccc2c1 (racemic) [Compound 40]	10
CNC[C@@H](c1ccc2ccccc2c1)[C@H](O)c1cc(F)cc(F)c1 [Compound 142]	9.6
CNC[C@@H](c1ccc(Cl)c(Cl)c1)[C@@H](O)c1cccc(NS(=O)(=O)C(F)(F)F)c1 [Compound 121]	9.4
CNC[C@H](c1ccc2ccccc2c1)[C@H](O)c1cccnc1 (racemic) [Compound 62]	9.6
CNC[C@H](c1ccc2ccccc2c1)[C@H](OCC(=O)N1CCOCC1)c1ccccc1 [Compound 23]	9.6
CNC[C@H](c1ccc(Cl)c(Cl)c1)[C@H](O)c1ccncc1 (racemic) [Compound 155]	9.3
CNC[C@H](c1ccc2ccccc2c1)[C@@H](Cl)c1ccccc1 [Compound 61]	9.5
CNC[C@H](c1ccc(Cl)c(Cl)c1)[C@@H](O)c1ccccc1[N+](=O)[O-] [Compound 65]	9.3
CNC[C@@H](c1ccc2ccccc2c1)[C@H](O)c1ccccn1 (racemic) [Compound 72]	9.6
CNC[C@H](c1ccc(Br)cc1)[C@H](O)c1ccccc1 (racemic) [Compound 149]	9.7
CCc1cccc([C@@H](O)[C@H](CNC)c2ccc(Cl)c(Cl)c2)c1 [Compound 159]	9.4
CNC[C@H](Cc1ccccc1O)c1ccc2ccccc2c1 [Compound 140]	10
CNCC(Cc1cccnc1)c1ccc2ccccc2c1 (stereo not drawn) [Compound 48]	9.9
CNC[C@H](c1ccc2ccccc2c1)[C@H](OC)c1ccccc1 [Compound 46]	9.7
